melting point for assorted compounds
Structures can show the parent of a compound that is named as a salt.

compound	melting point
C[C@@H]1CN(Cc2ccc3[nH]nc(S(=O)(=O)c4cccc5ccccc45)c3c2)CCN1 (as salt: HCl)	179 to 181 °C
O=S(=O)(c1ccccc1)c1n[nH]c2ccc(OCCN3CCCCC3)cc12 (as salt: hydrochloride)	249 to 250 °C
NCCOc1ccc2[nH]nc(S(=O)(=O)c3ccccc3)c2c1 (as salt: hydrochloride)	> 300 °C
CN(C)CCCCc1ccc2[nH]nc(S(=O)(=O)c3cccc4ccccc34)c2c1	232 to 233 °C
CN(C)CCCc1ccc2[nH]nc(S(=O)(=O)c3cccc4ccccc34)c2c1 (as salt: hydrochloride)	247 to 248 °C
NCCCc1ccc2[nH]nc(S(=O)(=O)c3ccccc3)c2c1 (as salt: trifluoroacetate)	92 to 94 °C
N[C@@H]1CCN(Cc2ccc3[nH]nc(S(=O)(=O)c4cccc5ccccc45)c3c2)C1 (as salt: HCl)	> 200 °C
C[C@H]1CN(Cc2ccc3[nH]nc(S(=O)(=O)c4cccc5ccccc45)c3c2)CCN1 (as salt: HCl)	178 to 181 °C

Moving on to another compound below.
// query melting point value for entry O=C(c1ccc2[nH]nc(S(=O)(=O)c3cccc4ccccc34)c2c1)N1CCNCC1 (as salt: hydrochloride)
> 200 °C
